system: 168753-222-R-J1-PDC complex spheroid viability; experiment: Anticancer human tumor 168753-222-R-J1-PDC patient-derived bladder carcinoma cell line growth inhibition [CLK]; settings: second compound 0.316 µM; first compound 0.316 µM; active = viability on the fitted dose curve at most 10% of control; inactive = the rest
Bench note: report the call from yes for active, no for inactive

Please review the following examples before continuing.
COc1c(OCCCN2CCOCC2)ccc2c3n(c(=NC(=O)c4cnc(N)nc4)nc12)CCN3 + CN1CCN(c2cc(C(=O)Nc3cc4cc(-c5cnn(C)c5)ccc4cn3)ccn2)CC1: yes
CC(CO)NC(=O)c1cc(-c2ccc(Cl)cc2)nn(-c2cnn(C)c2)c1=O (centres undefined) + CN1CCN(c2cc(C(=O)Nc3cc4cc(-c5cnn(C)c5)ccc4cn3)ccn2)CC1: no
CCCS(=O)(=O)Nc1ccc(F)c(C(=O)c2c[nH]c3ncc(-c4ccc(Cl)cc4)cc23)c1F + CN1CCN(c2cc(C(=O)Nc3cc4cc(-c5cnn(C)c5)ccc4cn3)ccn2)CC1: no
CC(=O)O[C@H]1C(=O)[C@@]2(C)[C@H]([C@H](OC(=O)c3ccccc3)[C@]3(O)C[C@H](OC(=O)[C@H](O)[C@@H](NC(=O)c4ccccc4)c4ccccc4)C(C)=C1C3(C)C)[C@]1(OC(C)=O)CO[C@@H]1C[C@@H]2O + CN1CCN(c2cc(C(=O)Nc3cc4cc(-c5cnn(C)c5)ccc4cn3)ccn2)CC1: no
CCc1c2c(nc3ccc(O)cc13)-c1cc3c(c(=O)n1C2)COC(=O)[C@]3(O)CC + CNC(=O)c1ccc(Nc2nc(OC3CCCC3)c3c(-c4ccc5nc(C)oc5c4)c[nH]c3n2)c(OC)c1: no

-- ask Recorded test outcome, item Nc1ccccc1NC(=O)c1ccc(CNC(=O)OCc2cccnc2)cc1 + CNC(=O)c1ccc(Nc2nc(OC3CCCC3)c3c(-c4ccc5nc(C)oc5c4)c[nH]c3n2)c(OC)c1
-- reply no

-- ask Recorded test outcome, item O=C(c1cc(Cc2n[nH]c(=O)c3ccccc23)ccc1F)N1CCN(C(=O)C2CC2)CC1 + CN1CCN(c2cc(C(=O)Nc3cc4cc(-c5cnn(C)c5)ccc4cn3)ccn2)CC1
-- reply yes

-- ask Recorded test outcome, item CC1(C)CCC(CN2CCN(c3ccc(C(=O)NS(=O)(=O)c4ccc(NCC5CCOCC5)c([N+](=O)[O-])c4)c(Oc4cnc5[nH]ccc5c4)c3)CC2)=C(c2ccc(Cl)cc2)C1 + CN1CCN(c2cc(C(=O)Nc3cc4cc(-c5cnn(C)c5)ccc4cn3)ccn2)CC1
-- reply yes

----------
test system: 168753-222-R-J1-PDC complex spheroid viability; assay: Anticancer human tumor 168753-222-R-J1-PDC cell line growth inhibition [CLK]; conditions: curve of first compound; second compound 3.16 µM;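 also: viability measured after seven days of drug exposure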
pIC50: −log10 of the molar value.
readout.kind: pIC50

Example results:
COc1cccc2c1C(=O)c1c(O)c3c(c(O)c1C2=O)CC(O)(C(=O)CO)CC3OC1CC(N)C(O)C(C)O1 (stereo unspecified) + CN1CCN(c2cc(C(=O)Nc3cc4cc(-c5cnn(C)c5)ccc4cn3)ccn2)CC1: > 7.50
COc1ccc([C@@H](O)c2cc(-c3ncnc4cc(N5CCOCC5)ccc34)c(F)cc2Cl)nn1 + CN1CCN(c2cc(C(=O)Nc3cc4cc(-c5cnn(C)c5)ccc4cn3)ccn2)CC1: > 7.50
CCCS(=O)(=O)Nc1ccc(F)c(C(=O)c2c[nH]c3ncc(-c4ccc(Cl)cc4)cc23)c1F + CN1CCN(c2cc(C(=O)Nc3cc4cc(-c5cnn(C)c5)ccc4cn3)ccn2)CC1: > 7.50
CC(Nc1ccc2c(c1)OCCn1cc(N3C(=O)OCC3C(F)F)nc1-2)C(N)=O (stereo unspecified) + CN1CCN(c2cc(C(=O)Nc3cc4cc(-c5cnn(C)c5)ccc4cn3)ccn2)CC1: > 7.50

-- ask Query the reported pIC50 for 168753-222-R-J1-PDC complex spheroid viability; item: O=c1[nH]cc(F)c(=O)[nH]1 + CN1CCN(c2cc(C(=O)Nc3cc4cc(-c5cnn(C)c5)ccc4cn3)ccn2)CC1
-- reply > 7.50

-- ask Query the reported pIC50 for 168753-222-R-J1-PDC complex spheroid viability; item: CCc1c2c(nc3ccc(O)cc13)-c1cc3c(c(=O)n1C2)COC(=O)[C@]3(O)CC + CN1CCN(c2cc(C(=O)Nc3cc4cc(-c5cnn(C)c5)ccc4cn3)ccn2)CC1
-- reply > 8.50

-- ask Query the reported pIC50 for 168753-222-R-J1-PDC complex spheroid viability; item: Nc1ccccc1NC(=O)c1ccc(CNC(=O)OCc2cccnc2)cc1 + CNC(=O)c1ccc(Nc2nc(OC3CCCC3)c3c(-c4ccc5nc(C)oc5c4)c[nH]c3n2)c(OC)c1
-- reply > 7.50

-- ask Query the reported pIC50 for 168753-222-R-J1-PDC complex spheroid viability; item: CC(CO)NC(=O)c1cc(-c2ccc(Cl)cc2)nn(-c2cnn(C)c2)c1=O (stereo unspecified) + CN1CCN(c2cc(C(=O)Nc3cc4cc(-c5cnn(C)c5)ccc4cn3)ccn2)CC1
-- reply > 7.50

-- ask Query the reported pIC50 for 168753-222-R-J1-PDC complex spheroid viability; item: CCN1CCN(Cc2ccc(Nc3ncc(F)c(-c4cc(F)c5nc(C)n(C(C)C)c5c4)n3)nc2)CC1 + CNC(=O)c1ccc(Nc2nc(OC3CCCC3)c3c(-c4ccc5nc(C)oc5c4)c[nH]c3n2)c(OC)c1
-- reply > 8.50

-- ask Query the reported pIC50 for 168753-222-R-J1-PDC complex spheroid viability; item: COc1c(OCCCN2CCOCC2)ccc2c3n(c(=NC(=O)c4cnc(N)nc4)nc12)CCN3 + CN1CCN(c2cc(C(=O)Nc3cc4cc(-c5cnn(C)c5)ccc4cn3)ccn2)CC1
-- reply > 8.50

-- ask Query the reported pIC50 for 168753-222-R-J1-PDC complex spheroid viability; item: C#Cc1c(F)ccc2cc(O)cc(-c3ncc4c(N5CC6CCC(C5)N6)nc(OCC56CCCN5CC(F)C6)nc4c3F)c12 (stereo unspecified) + CNC(=O)c1ccc(Nc2nc(OC3CCCC3)c3c(-c4ccc5nc(C)oc5c4)c[nH]c3n2)c(OC)c1
-- reply > 7.50

----------
system: 168753-222-R-J1-PDC complex spheroid viability; experiment: Anticancer human tumor 168753-222-R-J1-PDC cell line growth inhibition [CLK]; settings: second compound 10 µM; first compound 0.0949 µM; active = viability on the fitted dose curve at most 10% of control; inactive = the rest;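 also: viability measured after seven days of drug exposure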
Bench note: report the call from active, inactive

Please review the following examples before continuing.
C=CC(=O)Nc1cc(Nc2nccc(-c3cn(C)c4ccccc34)n2)c(OC)cc1N(C)CCN(C)C + CNC(=O)c1ccc(Nc2nc(OC3CCCC3)c3c(-c4ccc5nc(C)oc5c4)c[nH]c3n2)c(OC)c1: inactive
NC(=O)C(=Cn1cnc(-c2cc(C(F)(F)F)cc(C(F)(F)F)c2)n1)c1cncnc1 + CNC(=O)c1ccc(Nc2nc(OC3CCCC3)c3c(-c4ccc5nc(C)oc5c4)c[nH]c3n2)c(OC)c1: active
C=CC(=O)Nc1cc(Nc2nccc(-c3cn(C)c4ccccc34)n2)c(OC)cc1N(C)CCN(C)C + CN1CCN(c2cc(C(=O)Nc3cc4cc(-c5cnn(C)c5)ccc4cn3)ccn2)CC1: active
CC(C)CC(NC(=O)C(Cc1ccccc1)NC(=O)c1cnccn1)B(O)O (stereo unspecified) + CN1CCN(c2cc(C(=O)Nc3cc4cc(-c5cnn(C)c5)ccc4cn3)ccn2)CC1: active
NC(=O)C(=Cn1cnc(-c2cc(C(F)(F)F)cc(C(F)(F)F)c2)n1)c1cncnc1 + CN1CCN(c2cc(C(=O)Nc3cc4cc(-c5cnn(C)c5)ccc4cn3)ccn2)CC1: active

-- ask Recorded test outcome, item CC(C)CC(NC(=O)C(Cc1ccccc1)NC(=O)c1cnccn1)B(O)O (stereo unspecified) + CNC(=O)c1ccc(Nc2nc(OC3CCCC3)c3c(-c4ccc5nc(C)oc5c4)c[nH]c3n2)c(OC)c1
-- reply active

----------
Some compounds, each annotated with its measured viability, T/C.
test system: 168753-222-R-J1-PDC complex spheroid viability; assay: Anticancer human tumor 168753-222-R-J1-PDC cell line growth inhibition [CLK]; conditions: second compound 0.1 µM; first compound 0.0316 µM; stronger effect = lower value;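 also: viability measured after seven days of drug exposure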;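 as to viability, T/C: luminescence signal used as surrogate for viable cell amount; 100% = DMSO vehicle control wells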
State just the number; it will be interpreted in %.

Example results:
COc1c(OCCCN2CCOCC2)ccc2c3n(c(=NC(=O)c4cnc(N)nc4)nc12)CCN3 + CNC(=O)c1ccc(Nc2nc(OC3CCCC3)c3c(-c4ccc5nc(C)oc5c4)c[nH]c3n2)c(OC)c1: 14.7
Nc1ccn(C2OC(CO)C(O)C2(F)F)c(=O)n1 (stereo not drawn) + CN1CCN(c2cc(C(=O)Nc3cc4cc(-c5cnn(C)c5)ccc4cn3)ccn2)CC1: 63.6

Now turn to the next compound.
-- ask Can you share its viability, T/C? I mean this compound: CC(CO)NC(=O)c1cc(-c2ccc(Cl)cc2)nn(-c2cnn(C)c2)c1=O (stereo not drawn) + CN1CCN(c2cc(C(=O)Nc3cc4cc(-c5cnn(C)c5)ccc4cn3)ccn2)CC1
-- reply 87.2
